- Assay Details: Inhibition of PKA at 10 uM by HTRF assay relative to control
Provide the reported inhibition of each item.
Respond numerically; units are % and should not be typed.

Query: Would you mind telling me what inhibition value was observed for `COc1cccc(Nc2cc(Nc3cccc(C(=O)N(C)CCc4ccccn4)c3)nc(N)n2)c1` ?
Reply: 0

Query: Would you mind telling me what inhibition value was observed for `O=C(NC[C@@H]1CCCO1)c1cccc(Nc2nccc(Nc3ccc4ncsc4c3)n2)c1` ?
Reply: 4

Query: Would you mind telling me what inhibition value was observed for `Cc1cccc(Nc2nccc(Nc3cccc(C(=O)N(C)CCc4ccccn4)c3)n2)c1` ?
Reply: 0

Query: Would you mind telling me what inhibition value was observed for `O=C(COc1ccccc1)N1CCN(c2nccc(Nc3ccc4ncsc4c3)n2)CC1` ?
Reply: 2

Query: Would you mind telling me what inhibition value was observed for `O=C(NC1Cc2ccccc2C1)c1cccc(Nc2ccnc(N3CCN(c4ccccc4)CC3)n2)c1` ?
Reply: 0

Query: Would you mind telling me what inhibition value was observed for `CN(C)CC(C)(C)CNC(=O)C1CCN(c2cc(N3CCOCC3)nc(N)n2)CC1` ?
Reply: 0

Query: Would you mind telling me what inhibition value was observed for `CN(C)CC(C)(C)CNC(=O)c1cccc(Nc2nccc(Nc3ccc4ncsc4c3)n2)c1` ?
Reply: 12

Query: Would you mind telling me what inhibition value was observed for `Cc1cccc(Nc2ncnc3c2CN(C(=O)c2ccc(N(C)C)c4ccccc24)CC3)c1` ?
Reply: 0

Query: Would you mind telling me what inhibition value was observed for `Cc1cc(C(=O)N2CCN(c3ncnc4c3CN(Cc3ccccc3)CC4)CC2)c(C)n1C` ?
Reply: 0

###

- System: Epidermal growth factor receptor (Homo sapiens) (UniProt P00533)
- Sequence (P00533 whole entry): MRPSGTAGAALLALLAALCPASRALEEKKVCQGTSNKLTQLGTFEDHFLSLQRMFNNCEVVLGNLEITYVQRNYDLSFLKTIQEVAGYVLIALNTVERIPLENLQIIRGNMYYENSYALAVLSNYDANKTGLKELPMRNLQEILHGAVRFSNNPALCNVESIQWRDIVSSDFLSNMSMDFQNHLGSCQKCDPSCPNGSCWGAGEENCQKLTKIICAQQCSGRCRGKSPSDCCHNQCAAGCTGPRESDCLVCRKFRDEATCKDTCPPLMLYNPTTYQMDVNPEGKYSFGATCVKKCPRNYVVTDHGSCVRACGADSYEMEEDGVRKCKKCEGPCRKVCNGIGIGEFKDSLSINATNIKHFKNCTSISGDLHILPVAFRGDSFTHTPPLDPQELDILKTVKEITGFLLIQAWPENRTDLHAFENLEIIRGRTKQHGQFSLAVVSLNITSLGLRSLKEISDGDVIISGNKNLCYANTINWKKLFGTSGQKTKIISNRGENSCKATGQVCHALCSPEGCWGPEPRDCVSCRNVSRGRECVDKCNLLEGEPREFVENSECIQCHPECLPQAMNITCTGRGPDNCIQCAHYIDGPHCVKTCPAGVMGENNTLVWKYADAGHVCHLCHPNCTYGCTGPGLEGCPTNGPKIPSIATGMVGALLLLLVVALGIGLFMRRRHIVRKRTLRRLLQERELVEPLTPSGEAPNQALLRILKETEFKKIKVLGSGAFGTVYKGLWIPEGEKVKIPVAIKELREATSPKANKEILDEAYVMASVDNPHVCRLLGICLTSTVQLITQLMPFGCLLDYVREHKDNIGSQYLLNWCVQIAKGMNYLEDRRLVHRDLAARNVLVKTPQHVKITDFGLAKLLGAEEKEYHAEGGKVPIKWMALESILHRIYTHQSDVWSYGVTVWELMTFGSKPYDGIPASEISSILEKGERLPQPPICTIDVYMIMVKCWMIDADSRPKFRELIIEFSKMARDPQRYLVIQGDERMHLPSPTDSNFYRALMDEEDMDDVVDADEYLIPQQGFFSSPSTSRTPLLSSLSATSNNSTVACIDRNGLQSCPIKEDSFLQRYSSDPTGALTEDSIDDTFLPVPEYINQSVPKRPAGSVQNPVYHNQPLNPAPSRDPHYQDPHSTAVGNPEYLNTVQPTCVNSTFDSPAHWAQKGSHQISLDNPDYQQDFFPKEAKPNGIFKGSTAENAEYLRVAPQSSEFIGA
- Assay Details: Inhibition of EGFR at 10 uM by HTRF assay relative to control
Provide the reported inhibition of each item.

Query: Would you mind telling me what inhibition value was observed for `Cc1cccc(Oc2ccnc(N3CCC[C@H]3C(=O)NCc3cccnc3)n2)c1` ?
Reply: 0%

Query: Would you mind telling me what inhibition value was observed for `Cc1cccc(N(C)c2cc(N3CCN(CC(=O)Nc4nc(-c5ccccc5)cs4)CC3)ncn2)c1` ?
Reply: 0%

Query: Would you mind telling me what inhibition value was observed for `Clc1ccc2sc(CN3CCN(c4ncnc5c4CN(Cc4ccccc4)CC5)CC3)cc2c1` ?
Reply: 0%

Query: Would you mind telling me what inhibition value was observed for `Cc1cccc(Nc2nccc3c2CN(C(=O)c2cc(C)n(C)c2C)CC3)c1` ?
Reply: 82%

Query: Would you mind telling me what inhibition value was observed for `O=C(CN1CCN(c2ncnc3c2CN(Cc2ccccc2)CC3)CC1)Nc1cc(F)ccc1F` ?
Reply: 0%

Query: Would you mind telling me what inhibition value was observed for `Nc1nc(Nc2ccc3ncsc3c2)cc(N2CCC[C@H]2C(=O)N[C@@H](CO)c2ccccc2)n1` ?
Reply: 2%

Query: Would you mind telling me what inhibition value was observed for `Nc1nc(N2CCOCC2)cc(N2CCC(C(=O)NCc3cccs3)CC2)n1` ?
Reply: 0%

Query: Would you mind telling me what inhibition value was observed for `Cc1cccc(Oc2ccnc(N3CCC[C@H]3C(=O)NCCCn3ccnc3)n2)c1` ?
Reply: 0%

Query: Would you mind telling me what inhibition value was observed for `O=C(NCc1cccnc1)c1cccc(-c2ccc(Nc3ccc4ncsc4c3)nn2)c1` ?
Reply: 27%

Query: Would you mind telling me what inhibition value was observed for `CN(CCc1ccccn1)C(=O)c1cccc(Nc2nccc(Nc3ccc4ncsc4c3)n2)c1` ?
Reply: 23%

Query: Would you mind telling me what inhibition value was observed for `CC(=O)CCCCC(=O)N1CCN(c2nccc(Oc3cccc(C)c3)n2)CC1` ?
Reply: 0%

Query: Would you mind telling me what inhibition value was observed for `O=C(NC1Cc2ccccc2C1)c1cccc(Nc2ccnc(N3CCN(c4ccccc4)CC3)n2)c1` ?
Reply: 0%

Query: Would you mind telling me what inhibition value was observed for `Cc1cccc(N(C)c2cc(Nc3cccc(C(=O)NCc4ccc(N(C)C)cc4)c3)ncn2)c1` ?
Reply: 97%

Query: Would you mind telling me what inhibition value was observed for `O=C(C1CCN(c2nccc(Nc3ccccc3)n2)CC1)N1CC[C@@H](O)C1` ?
Reply: 0%

Query: Would you mind telling me what inhibition value was observed for `O=C(NC[C@@H]1CCCO1)c1cccc(Nc2nccc(Nc3ccc4ncsc4c3)n2)c1` ?
Reply: 43%

Query: Would you mind telling me what inhibition value was observed for `COc1ccc(NC(=O)Cc2ccc(Nc3cc(N(C)c4cccc(C)c4)ncn3)cc2)cn1` ?
Reply: 62%

Query: Would you mind telling me what inhibition value was observed for `CC(=O)N1CCN(C(=O)c2cccc(Nc3cc(N(C)c4cccc(C)c4)ncn3)c2)CC1` ?
Reply: 99%

Query: Would you mind telling me what inhibition value was observed for `Cc1cccc(Nc2ncnc3c2CN(C(=O)c2ccc(N(C)C)c4ccccc24)CC3)c1` ?
Reply: 31%

Query: Would you mind telling me what inhibition value was observed for `COc1cccc(Nc2cc(Nc3cccc(C(=O)NCCCn4ccnc4)c3)nc(N)n2)c1` ?
Reply: 91%

Query: Would you mind telling me what inhibition value was observed for `CN(C)c1ccc(C(=O)N2CCN(c3ncnc4c3CN(Cc3ccccc3)CC4)CC2)c2ccccc12` ?
Reply: 0%
